The entries below are paired with their reported pKd.
target: PDGFRB(DKIN) (PDGFR-β) (Homo sapiens); construct: PDGFRB(DKIN); experiment: Phage-display competitive binding assay, PDGFRB(DKIN); settings: T7 phage displaying human PDGFR-β, DKIN construct; read-out: Binding Assay: PDGFRB(DKIN)
pKd: −log10 of the molar value.

[
  {
    "compound": "CC(C)(C)c1cc(NC(=O)Nc2ccc(NC(=O)c3cccnc3C(=O)O)cc2)no1",
    "assayed_system": "PDGFRB(DKIN) (PDGFR-β) (Homo sapiens)",
    "pKd": "6.00 to 7.00"
  },
  {
    "compound": "CC(C)(C)c1cc(NC(=O)Nc2ccc(OCCN3CCOCC3)c3ccccc23)no1 [Compound A36]",
    "assayed_system": "PDGFRB(DKIN) (PDGFR-β) (Homo sapiens)",
    "pKd": "5.00 to 6.00"
  },
  {
    "compound": "CC(C)(C)c1cc(NC(=O)Nc2ccc(NC(=O)c3ccc(Oc4ccnc(C(=O)O)c4)cc3)cc2)no1",
    "assayed_system": "PDGFRB(DKIN) (PDGFR-β) (Homo sapiens)",
    "pKd": "> 7.00"
  },
  {
    "compound": "CCc1ccc(C(=O)Nc2ccc(NC(=O)Nc3cc(C(C)(C)C)on3)cc2)cc1",
    "assayed_system": "PDGFRB(DKIN) (PDGFR-β) (Homo sapiens)",
    "pKd": "> 7.00"
  },
  {
    "compound": "CC(C)(C)c1cc(NC(=O)Nc2ccc(NC(=O)c3cnc4ccccc4c3)cc2)no1",
    "assayed_system": "PDGFRB(DKIN) (PDGFR-β) (Homo sapiens)",
    "pKd": "> 7.00"
  },
  {
    "compound": "CC(C)(C)c1cc(NC(=O)Nc2ccc(NC(=O)c3cccc4cccnc34)cc2)no1",
    "assayed_system": "PDGFRB(DKIN) (PDGFR-β) (Homo sapiens)",
    "pKd": "> 7.00"
  },
  {
    "compound": "CC(C)(C)c1cc(NC(=O)Nc2ccc(NC(=O)c3csc(Cc4cccc(C(F)(F)F)c4)n3)cc2)no1",
    "assayed_system": "PDGFRB(DKIN) (PDGFR-β) (Homo sapiens)",
    "pKd": "6.00 to 7.00"
  },
  {
    "compound": "Cc1ccc(-n2nc(C(C)(C)C)cc2NC(=O)Nc2cc(C(C)(C)C)on2)cc1",
    "assayed_system": "PDGFRB(DKIN) (PDGFR-β) (Homo sapiens)",
    "pKd": "5.00 to 6.00"
  },
  {
    "compound": "COc1ccc(N2CCCN(c3cc(C(C)(C)C)no3)C2=O)cc1",
    "assayed_system": "PDGFRB(DKIN) (PDGFR-β) (Homo sapiens)",
    "pKd": "6.00 to 7.00"
  },
  {
    "compound": "CC(C)(C)c1ccc(NC(=O)Nc2cc(C(C)(C)C)no2)cc1",
    "assayed_system": "PDGFRB(DKIN) (PDGFR-β) (Homo sapiens)",
    "pKd": "6.00 to 7.00"
  },
  {
    "compound": "CC(C)(C)c1cc(NC(=O)Nc2ccc(NC(=O)CSCC(=O)Nc3ccccc3)cc2)no1",
    "assayed_system": "PDGFRB(DKIN) (PDGFR-β) (Homo sapiens)",
    "pKd": "6.00 to 7.00"
  },
  {
    "compound": "Cc1ccc(-n2nc(C(C)(C)C)cc2NC(=O)Nc2ccc(Cl)cc2)cc1",
    "assayed_system": "PDGFRB(DKIN) (PDGFR-β) (Homo sapiens)",
    "pKd": "6.00 to 7.00"
  },
  {
    "compound": "CC(=O)c1ccc(NC(=O)Nc2cc(C(C)(C)C)on2)cc1",
    "assayed_system": "PDGFRB(DKIN) (PDGFR-β) (Homo sapiens)",
    "pKd": "6.00 to 7.00"
  },
  {
    "compound": "CC(C)(C)c1cc(NC(=O)Nc2ccc(Br)cc2C(F)(F)F)on1",
    "assayed_system": "PDGFRB(DKIN) (PDGFR-β) (Homo sapiens)",
    "pKd": "5.00 to 6.00"
  },
  {
    "compound": "CC(C)(C)c1cc(NC(=O)Nc2ccc(-c3nc(-c4cccc5ccccc45)no3)cc2)no1",
    "assayed_system": "PDGFRB(DKIN) (PDGFR-β) (Homo sapiens)",
    "pKd": "6.00 to 7.00"
  },
  {
    "compound": "COc1nc(C)cc(C)c1C(=O)Nc1ccc(NC(=O)Nc2cc(C(C)(C)C)on2)cc1",
    "assayed_system": "PDGFRB(DKIN) (PDGFR-β) (Homo sapiens)",
    "pKd": "6.00 to 7.00"
  },
  {
    "compound": "CC(C)(C)c1cc(NC(=O)Nc2ccc(Cl)cc2)no1",
    "assayed_system": "PDGFRB(DKIN) (PDGFR-β) (Homo sapiens)",
    "pKd": "6.00 to 7.00"
  }
]
